Source listed as PubChem BioAssay (NCI).

Tested on: A549 NSCLC
procedure.summary: NCI tumour cell line growth inhibition, 48 h
# TGI per record follows

>  <molecule>
CC(C)C[C@H](NC(=O)CCc1ccccc1)B(O)O

>  <TGI>
> 100 µM

$$$$
>  <molecule>
CC(F)(F)c1cc(F)ccc1-c1sc2cc(O)ccc2c1Oc1ccc(/C=C/C(=O)O)cc1

>  <TGI>
29.9 µM

$$$$
>  <molecule>
CCCCCC(=O)OCC(=O)[C@H]1[C@H](C)C[C@H]2[C@@H]3C[C@H](F)C4=C/C(=N/OC(=O)c5cccc6c(=O)c7ccccc7[nH]c56)C=C[C@]4(C)[C@H]3[C@@H](O)C[C@@]21C

>  <TGI>
> 100 µM

$$$$
>  <molecule>
c1ccc2c[n+](CCCCCCCCCC[n+]3ccc4ccccc4c3)ccc2c1

>  <TGI>
> 10 µM

$$$$
>  <molecule>
CC(C)CC(CNC(Cc1ccc(Cl)cc1)C(N)=O)NC(=O)C(Cc1cnc[nH]1)NC(=O)CNC(=O)C(NC(=O)C(C)NC(=O)C(Cc1c[nH]c2ccccc12)NC(=O)C(CCC(=O)O)NC(=O)C(N)Cc1ccccc1)C(C)C (stereo not drawn)

>  <TGI>
> 133 µM

$$$$
>  <molecule>
CC(=O)OCC1OC(n2c3c(c(-c4ccc(Cl)cc4)c(C#N)c2=S)C(=O)CC(C)(C)C3)C(OC(C)=O)C(OC(C)=O)C1OC(C)=O (stereo not drawn)

>  <TGI>
> 100 µM

$$$$
>  <molecule>
O=C(Nc1cccc2cccnc12)c1ccc(N2C(=O)[C@@H]3[C@H](C2=O)[C@@H]2C=C[C@H]3C2)cc1

>  <TGI>
> 100 µM

$$$$
>  <molecule>
C[C@H]1C(OCCOC2O[C@@H]3O[C@@]4(C)CC[C@H]5[C@H](C)CCC([C@H]2C)[C@@]35O4)O[C@@H]2O[C@@]3(C)CC[C@H]4[C@H](C)CCC1[C@@]24O3 (stereo partly drawn)

>  <TGI>
> 100 µM

$$$$
>  <molecule>
C#CCOc1ccc2ncnc(Nc3ccc(NC(=O)CCl)cc3)c2c1

>  <TGI>
39.7 µM

$$$$
>  <molecule>
CCOC(=O)CNC(=O)CCCn1c(=O)c2c3ccccc3n(C)c2n2nnc(-c3ccccc3)c12

>  <TGI>
> 50 µM

$$$$
>  <molecule>
CC1=CC2(O)OC3(CC2=C(C)C)C(C)CCC13 (stereo not drawn)

>  <TGI>
> 100 µM

$$$$
>  <molecule>
COc1ccc(OC)c(NC(=O)C(=O)Nn2c(=S)[nH]c3ccccc3c2=O)c1

>  <TGI>
> 100 µM

$$$$
>  <molecule>
CCN(CC)Cc1ccc2cccnc2c1O

>  <TGI>
32.9 µM

$$$$
>  <molecule>
C[C@H]1CCC/C=C/[C@@H]2C[C@H](O)C[C@H]2[C@H](O)[C@@H](S(=O)CCN)CC(=O)O1 (stereo partly drawn)

>  <TGI>
> 100 µM

$$$$
>  <molecule>
C=C(C)[C@@H]1CC[C@@H](C)[C@](O)([C@@H]2C[C@@H]([C@H](COC(=O)c3ccccc3)OC(=O)c3ccccc3)OC2=O)C1

>  <TGI>
> 100 µM

$$$$
>  <molecule>
CC(=O)OC1OC2C(NC(=O)OC(C)(C)C)C1CC2(OCc1ccccc1)OCc1ccccc1 (stereo not drawn)

>  <TGI>
> 100 µM

$$$$
>  <molecule>
CO/C(=N\N=C\c1ccc(OC)cc1OC)c1ccncc1

>  <TGI>
> 10 µM

$$$$
>  <molecule>
CC1=Nc2c([nH]c(=S)[nH]c2=O)NC(c2ccc(Cl)c(Cl)c2)C1 (stereo not drawn)

>  <TGI>
47.5 µM

$$$$
>  <molecule>
CCOC(=O)CC1=NC(=Nc2cc(Cl)ccc2Cl)SC1

>  <TGI>
> 100 µM

$$$$
>  <molecule>
CS(=O)c1ccc(-c2nc(-c3ccc(F)cc3)c(-c3ccncc3)[nH]2)cc1 (stereo not drawn)

>  <TGI>
> 100 µM

$$$$
>  <molecule>
COc1cc(C)cc2c1C(=O)C(Br)=CC2=O

>  <TGI>
43.4 µM

$$$$
>  <molecule>
CCOC(OCC)c1ccc(/C=C/c2cc(OC)c(OC)c(OC)c2)cc1

>  <TGI>
95.2 µM

$$$$
>  <molecule>
CCOC(=O)N1C/C(=C/c2ccc(OC)cc2)C(=O)/C(=C/c2ccc(OC)cc2)C1

>  <TGI>
6.96 µM

$$$$
>  <molecule>
NC12CC3CC(C1)CC(Cl)(C3)C2

>  <TGI>
> 100 µM

$$$$
>  <molecule>
Cc1ccc(S(=O)(=O)NC(CCC(=O)Nc2ccccc2)C(=O)Nc2ccccc2)cc1 (stereo not drawn)

>  <TGI>
1.76 µM

$$$$
>  <molecule>
OCCSCc1cc2c(O)c(c1)Cc1cc(CSCCO)cc(c1O)Cc1cc(CSCCO)cc(c1O)Cc1cc(CSCCO)cc(c1O)C2

>  <TGI>
20.4 µM

$$$$
>  <molecule>
Cc1cccc2c1Oc1cc(Cl)ccc1C2NC(=O)CN(C)C (stereo not drawn)

>  <TGI>
> 100 µM

$$$$
>  <molecule>
CCOC(=O)N1c2ccccc2S(=O)(=O)c2ccccc21

>  <TGI>
> 100 µM

$$$$
>  <molecule>
NC(=O)c1csc(CCCCCCc2nc(C(N)=O)cs2)n1

>  <TGI>
> 100 µM

$$$$
>  <molecule>
O=C(N/C(=C\c1ccc(Br)cc1)c1nc2ccccc2s1)c1ccccc1

>  <TGI>
> 100 µM

$$$$
>  <molecule>
CC(=O)n1nc(-c2nc3ccccc3nc2Cl)cc1Cl

>  <TGI>
> 88.5 µM

$$$$
>  <molecule>
Cc1ccc(C2SCc3nc4ccc(C(=O)c5ccccc5)cc4n32)cc1 (stereo not drawn)

>  <TGI>
> 63.3 µM

$$$$
>  <molecule>
CN(C)CCOc1nc2c3cccnc3cc(-c3cccc(Cl)c3)c2c2ncccc12

>  <TGI>
2.98 µM

$$$$
>  <molecule>
C=C1C(=O)O[C@H]2[C@H]1[C@H](OC(=O)/C(C)=C\C)C[C@]1(CO1)[C@@H]1[C@H](OC(C)=O)C=C(C)[C@]21O

>  <TGI>
> 100 µM

$$$$
>  <molecule>
CC1=NN2C(=O)CC(=O)N=C2S1

>  <TGI>
> 100 µM

$$$$
>  <molecule>
Cn1cc2c(=O)n3ncn(-c4ccc(Br)cc4)c3nc2n1

>  <TGI>
> 100 µM

$$$$
>  <molecule>
Nc1nc(Cl)cc(NCC2(CO)CCC2)n1

>  <TGI>
> 100 µM

$$$$
>  <molecule>
COc1ccc(OC)c(-c2cc(-c3ccccc3)nn2-c2ccc(S(N)(=O)=O)cc2)c1

>  <TGI>
42.6 µM

$$$$

---

System: IGROV1 ovarian
procedure.summary: NCI tumour cell line growth inhibition, 48 h
List of TGI values.
metric.name: TGI

>  <molecule>
COc1ccc(-c2c3c(n(C4OC(CO)C(O)C(O)C4O)c(=S)c2C#N)CC(C)(C)CC3=O)cc1 (configuration not stated)

>  <measurement.target>
IGROV1 ovarian

>  <metric.name>
TGI

>  <meas.value>
> 100 µM

$$$$
>  <molecule>
CC(C)=CCC/C(C)=C/CC/C(=C/COP(=O)(OCc1ccc([N+](=O)[O-])o1)N(C)CCCCCl)CC=C(C)C (configuration not stated)

>  <measurement.target>
IGROV1 ovarian

>  <metric.name>
TGI

>  <meas.value>
14.4 µM

$$$$
>  <molecule>
O=C1SC(c2ccc(Cl)cc2)(c2ccc(Cl)cc2)c2ccccc21

>  <measurement.target>
IGROV1 ovarian

>  <metric.name>
TGI

>  <meas.value>
> 100 µM

$$$$
>  <molecule>
Cc1ccc(C)c(/C(=N\N=C(N)N)C2CC2)c1

>  <measurement.target>
IGROV1 ovarian

>  <metric.name>
TGI

>  <meas.value>
> 100 µM

$$$$
>  <molecule>
CN1CC2=C(NC(=S)NC2c2ccc(Cl)cc2)/C(=C/c2ccc(Cl)cc2)C1 (configuration not stated)

>  <measurement.target>
IGROV1 ovarian

>  <metric.name>
TGI

>  <meas.value>
32.6 µM

$$$$
>  <molecule>
COc1ccc(NC(=O)Nc2ccc(Nc3nc(C)cc(Nc4ccc(C)cc4)n3)cc2)cc1

>  <measurement.target>
IGROV1 ovarian

>  <metric.name>
TGI

>  <meas.value>
3.28 µM

$$$$
>  <molecule>
Cc1ccc(S(=O)(=O)NC(=O)NCC(=O)NCC(=O)O)cc1

>  <measurement.target>
IGROV1 ovarian

>  <metric.name>
TGI

>  <meas.value>
> 100 µM

$$$$

---

Tested on: MOLT-4 leukemia
procedure.summary: NCI tumour cell line growth inhibition, 48 h; in the data active means GI50 below about 0.43 µM; inactive means the rest
Labels: true (1) = active, false (0) = inactive

>  <molecule>
COc1ccc(NC(=O)Nc2ccc(Nc3nc(C)cc(Nc4ccc(C)cc4)n3)cc2)cc1

>  <answer.label>
true (1)

$$$$
>  <molecule>
CC(C)=CCC/C(C)=C/CC/C(=C/COP(=O)(OCc1ccc([N+](=O)[O-])o1)N(C)CCCCCl)CC=C(C)C (configuration not stated)

>  <answer.label>
false (0)

$$$$
>  <molecule>
CCOC(=O)CNC(=O)CCCn1c(=O)c2c3ccccc3n(C)c2n2nnc(-c3ccccc3)c12

>  <answer.label>
false (0)

$$$$
>  <molecule>
COc1cc(C2CC(c3ccc4c(c3)OCO4)=NN2C(C)=O)cc(OC)c1OC (configuration not stated)

>  <answer.label>
false (0)

$$$$
>  <molecule>
O=C1/C(=C/c2ccc([N+](=O)[O-])s2)Oc2ccccc21

>  <answer.label>
false (0)

$$$$
>  <molecule>
C[C@H]1CCC/C=C/[C@@H]2C[C@H](O)C[C@H]2[C@H](O)[C@@H](S(=O)CCN)CC(=O)O1 (some centres not stated)

>  <answer.label>
true (1)

$$$$
>  <molecule>
CC1CCC2C(C)C3C(CC4C5CC=C6CC(OC7OC(CO)C(O)C(OC8OC(CO)C(O)C(O)C8O)C7OC7OC(C)C(O)C(O)C7O)CCC6(C)C5CCC43C)N2C1 (configuration not stated)

>  <answer.label>
false (0)

$$$$
>  <molecule>
CCOC(=O)c1cc2cc(NC(=O)c3cc4cc([N+](=O)[O-])ccc4n3C)ccc2n1C

>  <answer.label>
false (0)

$$$$
>  <molecule>
CCN(CC)CCCCCOc1cc(O)c2c(=O)cc(-c3ccccc3)oc2c1

>  <answer.label>
false (0)

$$$$
>  <molecule>
O=C(NCCN1CCOCC1)Nc1ccc(-c2cc3c(Nc4ccc(Oc5cccc(C(F)(F)F)c5)c(Cl)c4)ncnc3s2)cc1

>  <answer.label>
false (0)

$$$$
>  <molecule>
COC(=O)c1c2c(c(C)[n+]([O-])c1C)C(=O)C(NCc1cccc(OC)c1)=CC2=O

>  <answer.label>
false (0)

$$$$
>  <molecule>
CS(=O)c1ccc(-c2nc(-c3ccc(F)cc3)c(-c3ccncc3)[nH]2)cc1 (configuration not stated)

>  <answer.label>
false (0)

$$$$
>  <molecule>
O=C(CC1(O)C(=O)Nc2ccc(Br)cc21)c1ccc(C(=O)NCC2CCC3(CC2)OOC2(CCCCC2)OO3)cc1 (configuration not stated)

>  <answer.label>
false (0)

$$$$
>  <molecule>
C#CCOc1ccc2ncnc(Nc3ccc(NC(=O)CCl)cc3)c2c1

>  <answer.label>
false (0)

$$$$
>  <molecule>
COc1cc(-c2nc(SCC(=O)Nc3ccc(C(C)=O)cc3)[nH]c(=O)c2C#N)cc(OC)c1OC

>  <answer.label>
false (0)

$$$$
>  <molecule>
CCCC[P+](c1ccccc1)(c1ccccc1)c1ccccc1

>  <answer.label>
false (0)

$$$$
>  <molecule>
COc1cc(/C=C2\CC3C4CC=C5C[C@@H](N6CCCC6)CC[C@]5(C)C4CC[C@]3(C)[C@H]2OC(C)=O)ccc1OCCN1CCCCC1 (some centres not stated)

>  <answer.label>
true (1)

$$$$
